study target: Estrogen receptor beta (Homo sapiens) (UniProt Q92731)
Sequence (Q92731 whole entry, looked up): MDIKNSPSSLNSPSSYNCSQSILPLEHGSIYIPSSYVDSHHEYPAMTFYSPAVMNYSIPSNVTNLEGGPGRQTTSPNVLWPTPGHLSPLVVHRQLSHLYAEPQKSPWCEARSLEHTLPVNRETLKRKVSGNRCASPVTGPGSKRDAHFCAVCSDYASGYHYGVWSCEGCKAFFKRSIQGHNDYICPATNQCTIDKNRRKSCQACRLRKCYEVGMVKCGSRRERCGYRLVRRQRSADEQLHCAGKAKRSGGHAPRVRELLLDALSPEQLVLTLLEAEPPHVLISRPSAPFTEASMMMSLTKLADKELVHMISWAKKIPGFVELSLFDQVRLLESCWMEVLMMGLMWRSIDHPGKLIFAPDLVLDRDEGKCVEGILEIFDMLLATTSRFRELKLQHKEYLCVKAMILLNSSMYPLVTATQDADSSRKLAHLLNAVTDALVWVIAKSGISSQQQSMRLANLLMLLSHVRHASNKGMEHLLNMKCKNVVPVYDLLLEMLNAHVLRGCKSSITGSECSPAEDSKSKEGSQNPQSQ
protocol summary: qHTS assay to identify small molecule antagonists of the estrogen receptor beta (ER-beta) signaling pathway (AID 1259378)
reported conditions: ER-beta-UAS-bla HEK293T, beta-lactamase FRET ratio, 16 h; series mostly up to 92.4 µM
Records with an inconclusive call do not appear. Calls of active or inactive are those of the source. The call rests on the fitted dose curve; in most records, active means well fitted inhibition curve with a large enough effect in the signal ratio in the repeat runs (not every such curve was filed as active); inconclusive means weak or mixed curves, or effect the other way; inactive means no such curve, though single readings can be large or run the other way; the % refers to the signal ratio.
Lab note: assign the record to one of active, inactive

INSERT INTO assay_data (compound_string, study_target, category_label) VALUES
  ('C(=C(c1ccccc1)c1ccccc1)c1ccccc1', 'Estrogen receptor beta (Homo sapiens) (UniProt Q92731)', 'active'),
  ('CC/C=C\C#N', 'Estrogen receptor beta (Homo sapiens) (UniProt Q92731)', 'inactive'),
  ('CCCOc1ccccc1-c1nc2n[nH]nc2c(=O)[nH]1', 'Estrogen receptor beta (Homo sapiens) (UniProt Q92731)', 'inactive'),
  ('O=C(O)c1ccc[n+]([O-])c1', 'Estrogen receptor beta (Homo sapiens) (UniProt Q92731)', 'inactive'),
  ('CO[Si](OC)(OC)OC', 'Estrogen receptor beta (Homo sapiens) (UniProt Q92731)', 'inactive'),
  ('C=C[Si](OC)(OC)OC', 'Estrogen receptor beta (Homo sapiens) (UniProt Q92731)', 'inactive');

Consider the additional compound presented here.
// return assay outcome for `O=C(O)CCNC(=O)c1ccc(N=Nc2ccc(O)c(C(=O)O)c2)cc1`
inactive

====

# activity change, negative = inhibition values compiled below
protocol summary: qHTS assay to identify small molecule HDAC inhibitors (AID 1259364);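 further: wild-type HCT-116 cells with endogenous class I/II HDAC activity; top concentration of the series differs between compounds; on the % scale 0 is the no-effect control and ±100 the full control effect; nearly all actives have a fitted effect of over 45% in size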
reported conditions: HCT-116 HDAC-Glo I/II luminescence, 2 h; series mostly up to 92.4 µM
Inconclusive results are not listed. Activity calls are given as the source filed them. Calls follow the shape of the dose curve; as a rule, active = well fitted inhibition curve with a large enough effect in the repeat runs; inconclusive = weak or mixed curves; inactive = flat fitted curve, though single readings scatter.

Here's what some known entries look like.
INSERT INTO assay_data (compound_string, meas_value) VALUES
  ('FC(F)(F)C(F)(F)C(F)(F)C(F)(F)C(F)(F)C(F)(F)C(F)(F)C(F)(F)C(F)(F)C(F)(F)F', '-3.49% [at 8.39 µM] (inactive)'),
  ('C1CCCCCCCCCCC1', '3.38% [at 19 µM] (inactive)'),
  ('CCn1cc(C(=O)O)c(=O)c2cc(F)c(N3CCN(C)CC3)cc21', '-0.624% [at 19 µM] (inactive)');

# ---- query molecule ----
Param item = `C=C(C)C(=O)OCCCCCCCCCCCCCCCCCC` ; retrieve measured activity change, negative = inhibition.
1.5% [at 19 µM] (inactive)

====

protocol summary: qHTS RealTime-Glo MT Cell Viability Assay in HepG2 cells - 16 hour (AID 1224885); further: on the % scale 0 is the no-effect control and ±100 the full control effect; nearly all actives have a fitted effect of over 50% in size
reported conditions: RealTime-Glo luminescence; series mostly up to 76.8 µM
Results filed as inconclusive are left out. Active and inactive are the calls of the source. Calls come from the whole dose curve; as a rule, active = well fitted cell-killing curve with a large enough effect in the repeat runs; inconclusive = weak or mixed curves; inactive = flat fitted curve, though single readings scatter.
property name: activity change, negative = cytotoxic

Here's what some known entries look like.
INSERT INTO assay_data (molecule, meas_value) VALUES
  ('NC1CCN(c2cccc(Cl)n2)CC1', 'inactive'),
  ('NCCN1CCNC1=O', 'inactive'),
  ('CC(C)N1C(=O)c2ccccc2C1=O', 'inactive'),
  ('CCC(C)OC(=O)N1CCCCC1CCO (stereo not given)', 'inactive'),
  ('CCCCOCC(C)OCC(C)O (stereo not given)', 'inactive');

Param item = C#CC(O)CCCCC (stereo not given) ; retrieve measured activity change, negative = cytotoxic.
inactive

Param item = CCCCCCCCCCCCCCCCCCOCC(O)CO (stereo not given) ; retrieve measured activity change, negative = cytotoxic.
inactive

Param item = `CCO[Si](CCCN=C=O)(OCC)OCC` ; retrieve measured activity change, negative = cytotoxic.
inactive

====

protocol summary: qHTS assay to identify small molecule antagonists of the androgen receptor (AR) signaling pathway - cell viability counter screen (AID 743033; further: on the % scale 0 is the no-effect control and ±100 the full control effect; nearly all actives have a fitted effect of over 45% in size)
reported conditions: AR-bla HEK293 viability, CellTiter-Glo luminescence, 16 h; series mostly up to 58.5 µM
Records with an inconclusive call do not appear. Calls of active or inactive are those of the source. Calls follow the shape of the dose curve; as a rule, active = well fitted cell-killing curve with a large enough effect in the repeat runs; inconclusive = weak or mixed curves; inactive = no such curve, though single readings can be large or run the other way.
property name: activity change, negative = cytotoxicity

INSERT INTO assay_data (molecule, meas_value) VALUES
  ('C=C(C)C(=O)OCCCCCCCCCCCCCCCCCC', 'inactive'),
  ('CCCc1ccc(N)cc1', 'inactive'),
  ('COC(=O)CCCCCCCCC(=O)OC', 'inactive'),
  ('O=C(O)c1ccccc1S', 'inactive'),
  ('Cc1cc(C)c(NC(=O)CN(CC(=O)O)CC(=O)O)c(C)c1Br', 'inactive');

Param item = C=C(C)C(=O)OCCC(C)OC(=O)C(=C)C (centres undefined) ; retrieve measured activity change, negative = cytotoxicity.
inactive

Param item = COC(C(=O)O)c1ccccc1 (centres undefined) ; retrieve measured activity change, negative = cytotoxicity.
inactive

Param item = `Cc1ccc(Nc2ccc(O)c3c2C(=O)c2ccccc2C3=O)cc1` ; retrieve measured activity change, negative = cytotoxicity.
inactive

Param item = CCCCOCC(C)OCC(C)O (centres undefined) ; retrieve measured activity change, negative = cytotoxicity.
inactive

Param item = `C[N+](C)(C)CC[N+]1(C)Cc2c(Cl)c(Cl)c(Cl)c(Cl)c2C1` ; retrieve measured activity change, negative = cytotoxicity.
inactive

Param item = `N#CCc1ccccc1[N+](=O)[O-]` ; retrieve measured activity change, negative = cytotoxicity.
inactive

Param item = CCC(C)OC(=O)N1CCCCC1CCO (centres undefined) ; retrieve measured activity change, negative = cytotoxicity.
inactive

Param item = `CCc1cc(S(=O)(=O)O)c2cc(C(C)C)cccc1-2` ; retrieve measured activity change, negative = cytotoxicity.
inactive

Param item = `CCN1CCN(c2cc3c(cc2F)c(=O)c(C(=O)O)cn3C2CC2)CC1` ; retrieve measured activity change, negative = cytotoxicity.
inactive

Param item = `c1ccc(SCCSc2ccccc2)cc1` ; retrieve measured activity change, negative = cytotoxicity.
inactive

Param item = NS(=O)(=O)c1cc2c(cc1C(F)(F)F)NC(Cc1ccccc1)NS2(=O)=O (centres undefined) ; retrieve measured activity change, negative = cytotoxicity.
inactive

Param item = `CCCCCCCCC=O` ; retrieve measured activity change, negative = cytotoxicity.
inactive

Param item = CC(=O)NC(Cc1ccccc1)C(=O)O (centres undefined) ; retrieve measured activity change, negative = cytotoxicity.
inactive

Param item = `Cc1c(C)n(CCN(C)C)c2ccc(C(=O)OCCN(C)C)cc12` ; retrieve measured activity change, negative = cytotoxicity.
inactive

Param item = NC(CS)C(=O)O (centres undefined) ; retrieve measured activity change, negative = cytotoxicity.
inactive

Param item = `C=C(C)[C@H]1CC=C(C)CC1` ; retrieve measured activity change, negative = cytotoxicity.
inactive

Param item = `CCCCN(CCO)CCO` ; retrieve measured activity change, negative = cytotoxicity.
inactive

====

protocol summary: Caspase-3/7 induction in CHO-K1 cells by small molecules, qHTS assay (AID 1346980); further: on the % scale 0 is the no-effect control and ±100 the full control effect; nearly all actives have a fitted effect of over 15% in size
reported conditions: CHO-K1 caspase-3/7 induction, Caspase-Glo luminescence, 17 h; series mostly up to 92.4 µM
Text: National Center for Advancing Translational Sciences [NCATS] NIH Chemical Genomics Center [NCGC] U.S. Environmental Protection Agency [EPA] National Institutes of Environmental Health Sciences [NIEHS] National Toxicology Program [NTP] Apoptosis is a process of programmed cell death and plays a central role in the development of multicellular organisms. […]
Active and inactive are the calls of the source. Calls come from the whole dose curve; as a rule, active = well fitted activation curve with a large enough effect in the repeat runs; inconclusive = weak or mixed curves; inactive = flat fitted curve, though single readings scatter.
property name: caspase-3/7 activation

INSERT INTO results (compound, meas_value) VALUES
  ('[O-][N+](=Nc1ccccc1)c1ccccc1', 'inactive'),
  ('C=CCOCC(O)CS(=O)(=O)O (stereo unspecified)', 'inactive'),
  ('Nc1ccc2cc(S(=O)(=O)O)ccc2c1', 'inactive'),
  ('CC(C)COC(=O)c1ccccc1O', 'inactive'),
  ('C=C[Si](OC)(OC)OC', 'inactive'),
  ('CN(C)CCn1nnnc1SCC1=C(C(=O)O)N2C(=O)[C@@H](NC(=O)Cc3csc(N)n3)[C@H]2SC1', 'inactive');

Param item = `Oc1cc(O)c2c(c1)O[C@H](c1ccc(O)c(O)c1)[C@H](O)C2` ; retrieve measured caspase-3/7 activation.
inactive

Param item = `c1cc(CN2CCCCC2)cc(OCCCNc2nc3ccccc3s2)c1` ; retrieve measured caspase-3/7 activation.
inactive

Param item = CC(O)CN(CCCN(C)C)CCCN(C)C (stereo unspecified) ; retrieve measured caspase-3/7 activation.
inactive

====

study target: Androgen receptor (Homo sapiens) (UniProt P10275)
Sequence (P10275 whole entry, looked up): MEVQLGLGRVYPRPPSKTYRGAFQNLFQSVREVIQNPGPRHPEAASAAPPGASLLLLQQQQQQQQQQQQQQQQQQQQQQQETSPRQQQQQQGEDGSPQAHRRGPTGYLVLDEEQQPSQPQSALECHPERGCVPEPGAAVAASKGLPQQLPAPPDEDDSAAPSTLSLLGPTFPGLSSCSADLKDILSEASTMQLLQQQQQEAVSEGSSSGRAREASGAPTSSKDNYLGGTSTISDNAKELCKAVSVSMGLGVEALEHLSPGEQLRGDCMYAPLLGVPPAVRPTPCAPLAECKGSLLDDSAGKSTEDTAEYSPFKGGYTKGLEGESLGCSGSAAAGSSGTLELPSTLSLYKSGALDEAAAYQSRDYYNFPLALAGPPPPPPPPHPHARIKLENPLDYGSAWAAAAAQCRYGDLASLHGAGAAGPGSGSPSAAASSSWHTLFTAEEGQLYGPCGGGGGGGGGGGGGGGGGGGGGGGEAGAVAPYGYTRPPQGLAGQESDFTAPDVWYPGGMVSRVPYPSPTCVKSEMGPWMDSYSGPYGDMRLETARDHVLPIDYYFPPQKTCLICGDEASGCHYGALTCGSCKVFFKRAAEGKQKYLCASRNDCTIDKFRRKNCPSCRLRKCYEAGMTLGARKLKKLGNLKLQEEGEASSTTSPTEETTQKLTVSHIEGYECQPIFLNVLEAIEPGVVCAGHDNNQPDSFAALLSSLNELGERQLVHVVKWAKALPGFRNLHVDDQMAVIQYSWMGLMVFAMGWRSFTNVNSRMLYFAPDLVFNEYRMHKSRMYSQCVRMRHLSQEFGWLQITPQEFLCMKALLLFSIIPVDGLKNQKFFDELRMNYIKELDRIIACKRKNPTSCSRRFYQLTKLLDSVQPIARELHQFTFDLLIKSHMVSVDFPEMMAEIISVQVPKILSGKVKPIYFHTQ
protocol summary: qHTS assay to identify small molecule antagonists of the androgen receptor (AR) signaling pathway (AID 743035)
reported conditions: HEK293 AR-UAS-bla, R1881-stimulated, beta-lactamase FRET, 16 h; series mostly up to 58.5 µM
Records with an inconclusive call do not appear. Active and inactive are the calls of the source. Calls come from the whole dose curve; as a rule, active = well fitted inhibition curve with a large enough effect in the signal ratio in the repeat runs (not every such curve was filed as active); inconclusive = weak or mixed curves, or effect the other way; inactive = no such curve, though single readings can be large or run the other way; the % refers to the signal ratio.
Lab note: assign the record to one of 1 (active), 0 (inactive)

# example entries with known answers
INSERT INTO measurements (compound_string, category_label) VALUES
  ('O=S(=O)(O)c1ccccc1O', 0),
  ('CCOC(=O)Nc1ccc2c(c1)N(C(=O)CCN1CCOCC1)c1ccccc1S2', 0),
  ('O=C(O)c1ccc[n+]([O-])c1', 0),
  ('CCCCCCCCN(C)CCCCCCCC', 0),
  ('CCCC(=O)O[C@]1(C(=O)CCl)[C@@H](C)C[C@H]2[C@@H]3CCC4=CC(=O)C=C[C@]4(C)[C@@]3(F)C(=O)C[C@@]21C', 1);

// return assay outcome for `CCN1CCN(c2cc3c(cc2F)c(=O)c(C(=O)O)cn3C2CC2)CC1`
0

// return assay outcome for `O=C(O)/C=C/c1ccc(/C=C/C(=O)O)cc1`
0

// return assay outcome for `CN(C)CCn1nnnc1SCC1=C(C(=O)O)N2C(=O)[C@@H](NC(=O)Cc3csc(N)n3)[C@H]2SC1`
0

// return assay outcome for `Cc1ccc(N)cc1[N+](=O)[O-]`
0

// return assay outcome for `CCCCc1ccc2cccc(S(=O)(=O)O)c2c1`
0

// return assay outcome for `CC(C)c1ccc2oc3nc(N)c(C(=O)O)cc3c(=O)c2c1`
0
